# assay.procedure: Cmax in rat at 10 mg/kg, po
# Format: ADME, organism-based
# Parameters: dose 10 mg/kg, route oral
# assay.conditions: in vivo
Listing of entries alongside the reported Cmax.
readout: Cmax (ng/mL)

* O=C(c1cc(F)cc(Cl)c1)N1CCc2oc(-c3ccc(F)cn3)nc2C1 | 1730
* O=C(c1ccccc1)N1CCc2oc(-c3ccc(F)cn3)nc2C1 | 2750
* O=C(c1cccc(F)c1)N1CCc2oc(-c3ccc(F)cn3)nc2C1 | 2070

* * *

# test.system: CYP2C8 (Homo sapiens)
# assay.procedure: Inhibition of CYP2C8 in human liver microsomes using amodiaquine as substrate after 10 mins by LC-MS/MS analysis
# Type: ADME
# assay.conditions: human, liver microsomes, probe amodiaquine
readout: IC50 at 10 min

- O=C(c1cc(F)cc(Cl)c1)N1CCn2nc(-c3ccc(F)cn3)cc2C1: > 40 µM

* * *

# test.system: Cytochrome P450 2C8 (Homo sapiens)
# Sequence (P10632 whole entry): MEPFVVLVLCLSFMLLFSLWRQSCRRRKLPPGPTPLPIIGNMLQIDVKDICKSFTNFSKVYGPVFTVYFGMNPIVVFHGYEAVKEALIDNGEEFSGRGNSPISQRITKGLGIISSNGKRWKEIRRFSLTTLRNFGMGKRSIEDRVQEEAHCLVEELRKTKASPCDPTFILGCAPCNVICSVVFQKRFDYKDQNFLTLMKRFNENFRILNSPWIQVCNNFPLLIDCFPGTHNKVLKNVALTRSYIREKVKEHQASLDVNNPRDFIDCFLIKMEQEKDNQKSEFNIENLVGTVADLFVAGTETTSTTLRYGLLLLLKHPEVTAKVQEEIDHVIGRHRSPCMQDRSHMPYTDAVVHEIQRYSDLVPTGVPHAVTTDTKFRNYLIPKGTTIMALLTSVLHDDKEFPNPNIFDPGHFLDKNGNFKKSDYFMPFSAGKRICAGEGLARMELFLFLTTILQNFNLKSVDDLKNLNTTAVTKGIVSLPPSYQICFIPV
readout: IC50

• O=C(c1cc(F)cc(Cl)c1)N1CCc2oc(-c3ccc(F)cn3)nc2C1 = > 50 µM

* * *

# test.system: CYP2C19 (Homo sapiens)
# Sequence (P33261 whole entry): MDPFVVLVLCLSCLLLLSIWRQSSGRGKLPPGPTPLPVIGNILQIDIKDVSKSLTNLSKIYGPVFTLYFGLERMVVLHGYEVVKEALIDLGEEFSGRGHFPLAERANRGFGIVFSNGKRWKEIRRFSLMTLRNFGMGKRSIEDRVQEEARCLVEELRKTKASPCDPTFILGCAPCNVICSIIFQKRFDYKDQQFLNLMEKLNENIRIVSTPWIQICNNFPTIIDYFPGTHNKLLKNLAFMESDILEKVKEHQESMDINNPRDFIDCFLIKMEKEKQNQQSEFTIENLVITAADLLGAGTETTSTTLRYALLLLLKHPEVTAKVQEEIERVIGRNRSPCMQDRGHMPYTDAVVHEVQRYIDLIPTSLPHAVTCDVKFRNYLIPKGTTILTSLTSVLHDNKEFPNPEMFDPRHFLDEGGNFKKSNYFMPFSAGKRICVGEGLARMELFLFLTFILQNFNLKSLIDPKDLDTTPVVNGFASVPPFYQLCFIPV
# assay.procedure: Inhibition of CYP2C19 in human liver microsomes using (S)-mephenytoin as substrate after 10 mins by LC-MS/MS analysis
# Assay type: ADME
# assay.conditions: human, liver microsomes, probe (S)-mephenytoin
readout: IC50 at 10 min

• O=C(c1cc(F)cc(Cl)c1)N1CCn2nc(-c3ccc(F)cn3)cc2C1 = > 40 µM

* * *

Listing of entries alongside the reported remaining at 0.5 h, 1 µM.
# assay.procedure: Metabolic stability in rat hepatic microsomes assessed as parent compound remaining at 1 uM after 30 mins in presence of NADPH by LC-MS/MS analysis relative to control
# Assay type: ADME, Microsome
# assay.conditions: liver microsomes, read-out: Stability
readout: remaining at 0.5 h, 1 µM

• O=C(c1ccccc1F)N1CCc2oc(-c3ccc(F)cn3)nc2C1 = > 91%
• O=C(c1cccc(Cl)c1)N1CCc2oc(-c3ccc(F)cn3)nc2C1 = > 91%
• Cc1cc(Cl)cc(C(=O)N2CCc3oc(-c4ccc(F)cn4)nc3C2)c1 = > 91%

* * *

# test.system: UniProt:P41594
# Sequence (P41594 whole entry): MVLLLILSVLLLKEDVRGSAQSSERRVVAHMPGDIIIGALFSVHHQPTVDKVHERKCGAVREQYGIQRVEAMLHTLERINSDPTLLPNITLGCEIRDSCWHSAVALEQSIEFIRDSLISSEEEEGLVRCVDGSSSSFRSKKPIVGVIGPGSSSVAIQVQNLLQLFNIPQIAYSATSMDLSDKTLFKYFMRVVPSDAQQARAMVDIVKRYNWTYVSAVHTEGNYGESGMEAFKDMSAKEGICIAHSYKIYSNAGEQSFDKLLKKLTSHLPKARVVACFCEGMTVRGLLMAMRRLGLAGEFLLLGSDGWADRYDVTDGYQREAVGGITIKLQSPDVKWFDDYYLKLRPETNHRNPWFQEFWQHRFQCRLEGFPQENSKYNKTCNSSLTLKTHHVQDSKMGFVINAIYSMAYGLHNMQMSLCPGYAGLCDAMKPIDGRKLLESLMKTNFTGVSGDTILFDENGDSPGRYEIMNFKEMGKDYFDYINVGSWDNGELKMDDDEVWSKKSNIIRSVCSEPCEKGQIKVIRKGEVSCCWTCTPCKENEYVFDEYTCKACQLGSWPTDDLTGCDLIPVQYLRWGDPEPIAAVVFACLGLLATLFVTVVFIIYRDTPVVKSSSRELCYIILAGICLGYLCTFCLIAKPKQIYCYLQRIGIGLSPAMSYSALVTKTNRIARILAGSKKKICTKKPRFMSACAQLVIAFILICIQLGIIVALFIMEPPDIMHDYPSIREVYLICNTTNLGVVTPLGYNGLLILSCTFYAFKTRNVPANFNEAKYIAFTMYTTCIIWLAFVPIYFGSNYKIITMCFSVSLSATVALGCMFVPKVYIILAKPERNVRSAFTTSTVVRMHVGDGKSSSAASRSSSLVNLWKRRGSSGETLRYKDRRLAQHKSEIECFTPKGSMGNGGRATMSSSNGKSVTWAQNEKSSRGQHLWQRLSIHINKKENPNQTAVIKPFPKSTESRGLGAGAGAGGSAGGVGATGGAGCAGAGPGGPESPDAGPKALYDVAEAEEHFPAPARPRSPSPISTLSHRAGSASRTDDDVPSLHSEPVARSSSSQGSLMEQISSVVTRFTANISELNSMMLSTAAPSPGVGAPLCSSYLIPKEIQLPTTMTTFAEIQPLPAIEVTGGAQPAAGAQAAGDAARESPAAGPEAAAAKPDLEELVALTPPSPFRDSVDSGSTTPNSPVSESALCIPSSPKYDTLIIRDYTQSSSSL
# assay.procedure: Negative allosteric modulation of human recombinant mGluR5 expressed in HEK293 cells assessed as inhibition of glutamate-induced calcium mobilization preincubated for 2 mins followed glutamate addition measured by fluorescence assay
pIC50: −log10 of the molar value.
satisfied means recorded pIC50 is 7 or above; not satisfied means it is below 7.

- N#Cc1ccc(-c2nc3c(o2)CCN(C(=O)c2ccccc2)C3)nc1: not satisfied
- Cc1ccc(-c2nc3c(o2)CCN(C(=O)c2ccccc2)C3)nc1: not satisfied
- Cc1cc(Cl)cc(C(=O)N2CCc3oc(-c4ccc(F)cn4)nc3C2)c1: satisfied
- N#Cc1cc(F)cc(C(=O)N2CCc3oc(-c4ccc(F)cn4)nc3C2)c1: not satisfied
- O=C(c1ccccc1F)N1CCc2oc(-c3ccc(F)cn3)nc2C1: satisfied
- O=C(c1cc(F)cc(Cl)c1)N1CCc2oc(-c3ccc(F)cn3)nc2C1: satisfied
- O=C(c1ccccc1)N1CCc2oc(-c3ccc(Br)cn3)nc2C1: not satisfied
- O=C(c1ccccc1)N1CCc2oc(-c3ccc(Cl)cn3)nc2C1: satisfied
- O=C(c1cccc(Cl)c1)N1CCc2oc(-c3ccc(F)cn3)nc2C1: satisfied
- O=C(c1ccccc1)N1CCc2oc(-c3ccc(F)cn3)nc2C1: satisfied

Data origin: ChEMBL document CHEMBL4043199
